Observed IC50 for UniProtKB O00329, reported per entry below.
Sequence (O00329 whole entry): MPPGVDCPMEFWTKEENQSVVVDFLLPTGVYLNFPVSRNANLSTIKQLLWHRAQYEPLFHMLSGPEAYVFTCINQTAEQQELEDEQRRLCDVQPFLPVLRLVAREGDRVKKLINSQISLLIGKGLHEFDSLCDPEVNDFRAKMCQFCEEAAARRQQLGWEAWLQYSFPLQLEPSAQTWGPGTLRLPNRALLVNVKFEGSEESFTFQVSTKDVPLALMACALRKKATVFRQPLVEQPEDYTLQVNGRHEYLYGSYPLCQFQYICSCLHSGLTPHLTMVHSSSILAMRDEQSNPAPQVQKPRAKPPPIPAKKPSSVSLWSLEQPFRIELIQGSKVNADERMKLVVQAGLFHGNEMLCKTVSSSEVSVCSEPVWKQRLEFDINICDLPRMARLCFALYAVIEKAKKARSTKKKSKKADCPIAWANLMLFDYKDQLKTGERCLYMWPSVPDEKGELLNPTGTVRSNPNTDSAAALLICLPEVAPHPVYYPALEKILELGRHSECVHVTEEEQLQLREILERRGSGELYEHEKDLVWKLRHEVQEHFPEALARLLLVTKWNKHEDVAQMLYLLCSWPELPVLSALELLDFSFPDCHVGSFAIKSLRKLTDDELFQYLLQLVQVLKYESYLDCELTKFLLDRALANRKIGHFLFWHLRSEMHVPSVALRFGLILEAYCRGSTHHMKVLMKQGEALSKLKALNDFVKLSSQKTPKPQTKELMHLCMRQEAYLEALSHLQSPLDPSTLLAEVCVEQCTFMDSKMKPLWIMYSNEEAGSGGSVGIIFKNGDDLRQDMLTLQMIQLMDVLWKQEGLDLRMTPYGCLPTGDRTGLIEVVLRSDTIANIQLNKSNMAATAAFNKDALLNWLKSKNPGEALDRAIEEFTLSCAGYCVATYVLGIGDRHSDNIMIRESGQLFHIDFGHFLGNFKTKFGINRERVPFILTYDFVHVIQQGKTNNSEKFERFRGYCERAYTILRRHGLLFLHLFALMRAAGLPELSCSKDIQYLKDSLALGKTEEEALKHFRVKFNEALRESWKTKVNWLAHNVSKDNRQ
Sequence (P27986 whole entry partner): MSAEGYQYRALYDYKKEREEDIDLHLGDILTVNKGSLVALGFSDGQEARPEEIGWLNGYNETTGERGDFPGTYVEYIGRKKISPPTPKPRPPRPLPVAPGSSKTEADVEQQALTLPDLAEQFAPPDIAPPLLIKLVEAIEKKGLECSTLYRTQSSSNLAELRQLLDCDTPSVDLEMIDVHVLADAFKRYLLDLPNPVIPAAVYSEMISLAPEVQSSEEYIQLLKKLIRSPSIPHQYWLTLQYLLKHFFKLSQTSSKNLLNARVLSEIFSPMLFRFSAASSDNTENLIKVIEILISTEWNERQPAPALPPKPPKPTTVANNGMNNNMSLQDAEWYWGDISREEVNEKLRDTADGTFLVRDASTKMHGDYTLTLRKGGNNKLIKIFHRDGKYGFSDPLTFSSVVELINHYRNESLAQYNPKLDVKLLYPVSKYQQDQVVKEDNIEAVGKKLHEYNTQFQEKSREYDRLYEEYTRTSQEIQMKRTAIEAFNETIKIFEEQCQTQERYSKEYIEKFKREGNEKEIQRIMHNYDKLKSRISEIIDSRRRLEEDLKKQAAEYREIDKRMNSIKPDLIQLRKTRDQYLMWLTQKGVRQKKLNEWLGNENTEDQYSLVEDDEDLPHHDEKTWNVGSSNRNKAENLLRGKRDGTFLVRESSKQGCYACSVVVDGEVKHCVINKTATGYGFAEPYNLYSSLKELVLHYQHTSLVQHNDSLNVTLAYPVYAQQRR
MEASURED QUANTITY: IC50 (nM)

Worked cases, IC50 given:
# QUERY SMILES, MEASURED QUANTITY, RECORDED RESULT
rows = [
    ("COc1ncc(-c2nc(N3CCOCC3)nc3c(CN4CC[C@@H](N5CCC[C@@H]5C)C4)c(C)sc23)cc1NS(C)(=O)=O", "IC50", 4),
    ("COc1ncc(-c2nc(N3CCOCC3)nc3c(CN4CCN(C(C)C)CC4)c(C)sc23)cc1NS(C)(=O)=O", "IC50", 3.2),
]

1 = COc1ncc(-c2nc(N3CCOCC3)nc3ccoc23)cc1NS(C)(=O)=O
2 = COc1ncc(-c2nc(N3CCOCC3)nc3c(CN4CCn5ccnc5C4)c(C)sc23)cc1NS(C)(=O)=O
Between 1 and 2 , whose recorded IC50 is greater? Refer to your chosen item by its label in the answer.
1

Measured values drawn from patent US9745321B2 for this set.
